B1: tRNA (parent)
chain: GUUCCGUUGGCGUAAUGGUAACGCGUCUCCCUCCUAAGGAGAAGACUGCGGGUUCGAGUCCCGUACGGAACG

variants of: B1; experiment: yeast fitness relative to wild type (ratio to wild type); higher = fitter; tRNA-Arg(CCU), competitive growth, 37 C, YPD
Fewer inactive variants are shown than the library holds.
We begin with a simple list: items and their reported yeast fitness.
API doc: respond with a numeric literal and nothing else, no unit.

**Query** May I ask what yeast fitness has been recorded for GUUCCGAUGGCGUAAUGGUAAUGCGUCUCCCUCCUAAGGAGAAGACUGCGGGUUCGAGUCCCGUACGGAACG [U7A C22U] ?
**Result** 0.798

**Query** May I ask what yeast fitness has been recorded for GUUUCGUUGGCGUAAUGGUAACGCGUCUCCCUCCUAAGGAGAAGACUGCGGGUUCGAGUCCCGUACGUAACG [C4U G68U] ?
**Result** 0.888

**Query** May I ask what yeast fitness has been recorded for GUUCCGUUGGCGUAAUGGUAACGCGUCUCCCUCCUAAGGAGAAGUCUGCGGGUUCGAGUCCCGUACGAACCG [A45U G68A A70C] ?
**Result** 0.641

**Query** May I ask what yeast fitness has been recorded for GUUCCGUUGGCGUAAUGGUAAUGCGUAUCCCUCCUAAGGAGAAGACUGCGGGUUCGAAUCCCGUACGGAACG [C22U C27A G58A] ?
**Result** 0.568

**Query** May I ask what yeast fitness has been recorded for GUUCCGUUGGCGUAAUGGUCACGCGUCUCCCUCCUAAGGAGAAGACUACGGGUUCGAGUCCCGUACGGAACG [A20C G48A] ?
**Result** 0.908

**Query** May I ask what yeast fitness has been recorded for GUUCCGUUGGCGUAAUGGCAACGCGUCCCCCUCCUAAGGAGAAGAAUGCGGGUUCGAGUCCCGUACGGACCG [U19C U28C C46A A70C] ?
**Result** 0.545

**Query** May I ask what yeast fitness has been recorded for GUUCCGUUGGCGUAACGGUAACGCGUCUCCCUCCUAAGGGGAAGAAUGCGGGUUCGAGUCCCGUACGGAACG [U16C A40G C46A] ?
**Result** 0.712

**Query** May I ask what yeast fitness has been recorded for GUUCCGUUGGCGUAAUGGUAACGCGUCUCCCUCCUAAGGAGAAGAAUGCGGGUUAGAGUCCCGUCCGGAACG [C46A C55A A65C] ?
**Result** 0.533

**Query** May I ask what yeast fitness has been recorded for GUUCCGUUGGCGUAAUGGUAUCGCGUCUCCCUCCUAAGAAGAAGACUGCGGGUUCGAGUCCCGUAUGGAACG [A21U G39A C66U] ?
**Result** 0.55

**Query** May I ask what yeast fitness has been recorded for GUUCCGUUGUCGUAAUAGUAACGAGUCUCCCUCCUAAGGAGAAGACUGCGGGUUCGAGUCCCGUAGGGAACG [G10U G17A C24A C66G] ?
**Result** 0.595

Continuing:
**Query** May I ask what yeast fitness has been recorded for GUUCCGUUGGCGUAAUGGUAACGCGUCUCCCUCCUAAGGAGAAGACUGCGGGUCCGAGUCCCGUACGGACCG [U54C A70C] ?
**Result** 0.925

**Query** May I ask what yeast fitness has been recorded for GUGCCGUUGGCGUAAUGGUAACGCGUCUCCCUCCUAAGGAGAAGGCUGCGGGUUCGAGUCCCGUGCGGAACG [U3G A45G A65G] ?
**Result** 0.729

**Query** May I ask what yeast fitness has been recorded for GUUCCGUUGGCGUAAUGGUAACGGGUCUCUCUCCUAAGGAGAAGAAUGCGGGUUCGAGUCCCGUACGGAACG [C24G C30U C46A] ?
**Result** 0.616
